Multiple publications report IC50 for UniProtKB P03951; what follows is a combined list.
Value expressed in µM; do not type the unit.

1) CC[C@H](C)[C@@H](NC1CCCCC1)C(=O)N1CCC[C@H]1C(=O)NCc1ccc2c(N)nccc2c1; 0.347
2) N=C(N)NCCC[C@H](NS(=O)(=O)c1cccc2ccccc12)C(=O)c1nccs1; 250
3) CC(C)C[C@H](NC(=O)NCc1ccc(F)cc1)C(=O)N[C@H](C(=O)N[C@@H](CCCNC(=N)N)C(=O)c1nccs1)C(C)C; 0.114
4) Cc1ccc(CN2CCN(C(=O)C[C@H](NC(=O)/C=C/c3cc(Cl)ccc3-n3cnnn3)C(=O)Nc3ccc(C(=O)O)cc3)CC2)cc1; 0.0265
5) O=C(/C=C/c1cc(Cl)ccc1-n1cnnn1)N[C@@H](CC(=O)N1CCCN(CC2CC2)CC1)C(=O)Nc1ccc(C(=O)O)cc1; 0.0671

In: Give me measured IC50, please, for this molecule: O=c1c2ccccc2nc(-c2cccc(OS(=O)(=O)O)c2)n1CCCCCn1c(-c2cccc(OS(=O)(=O)O)c2)nc2ccccc2c1=O
Out: 89

In: Give me measured IC50, please, for this molecule: CC(C)[C@H](NC(=O)[C@H](Cc1cccnc1)NC(=O)N[C@@H](C)c1ccc(F)cc1)C(=O)N[C@@H](CCCNC(=N)N)C(=O)c1nccs1
Out: 0.533

In: Give me measured IC50, please, for this molecule: O=c1c2ccccc2nc(-c2cccc(OS(=O)(=O)O)c2)n1C/C=C/Cn1c(-c2cccc(OS(=O)(=O)O)c2)nc2ccccc2c1=O
Out: 415
